- cond: buffer; pH 7.4; 200.0 µM
Classes (solubility kinetic): low class = under 4 µg/mL, middle class = from 4 µg/mL up to 30 µg/mL, high class = 30 µg/mL and over

[
  {
    "molecule": "Cc1cnc(C(=O)NCC(c2ccccc2)c2ccccc2)cn1",
    "assigned-label": "low class"
  },
  {
    "molecule": "Cn1c2ccc(F)cc2c2nc3ccccc3nc21",
    "assigned-label": "low class"
  },
  {
    "molecule": "C=CCNc1nc(S(=O)Cc2ccc(C)cc2)nc2c1CCCC2 (stereo not given)",
    "assigned-label": "high class"
  },
  {
    "molecule": "O=[N+]([O-])c1ccc2oc(-c3ccccc3)nc2c1",
    "assigned-label": "low class"
  },
  {
    "molecule": "Cc1nc(-c2cccc(S(=O)(=O)N3CCCCC3)c2)cs1",
    "assigned-label": "middle class"
  },
  {
    "molecule": "Oc1ccc2ccccc2c1CN1CCCC1",
    "assigned-label": "high class"
  },
  {
    "molecule": "Cc1ccc(N2C(=O)C(CN3CCCCC3)C2c2ccccc2)cc1 (stereo not given)",
    "assigned-label": "middle class"
  },
  {
    "molecule": "Cc1cc(C)c(S(=O)(=O)Nc2ccc(Cl)cn2)c(C)c1",
    "assigned-label": "low class"
  },
  {
    "molecule": "Cc1cccc(-n2c(=S)[nH]c3nc4c(cc3c2=O)COC(C)(C)C4)c1",
    "assigned-label": "low class"
  },
  {
    "molecule": "COc1cc(C(=O)OCC(=O)Nc2ccc(S(=O)(=O)N3CCCC3)cc2)cc(OC)c1OC",
    "assigned-label": "middle class"
  },
  {
    "molecule": "CCCN1CNC(=S)N(c2ccc(C)cc2C)C1",
    "assigned-label": "high class"
  },
  {
    "molecule": "Nc1cc(=O)[nH]c(SCC(=O)Nc2ccccc2-c2ccccc2)n1",
    "assigned-label": "high class"
  },
  {
    "molecule": "COc1ccc(OCC(=O)Nc2ccccc2N2CCN(C)CC2)cc1",
    "assigned-label": "high class"
  },
  {
    "molecule": "O=Cc1ccc(C(=O)OCC(=O)N2CCCC2)cc1",
    "assigned-label": "high class"
  },
  {
    "molecule": "CCN(Cc1ccccc1)C(=O)CC(=O)N(CC)Cc1ccccc1",
    "assigned-label": "high class"
  },
  {
    "molecule": "O=C1/C(=C\\c2ccsc2)NC(=S)N1c1ccccc1",
    "assigned-label": "middle class"
  },
  {
    "molecule": "CCCSc1nsc(NC(=O)CCC)n1",
    "assigned-label": "middle class"
  },
  {
    "molecule": "CCOc1ccccc1NC(=O)c1cccc(N2C(=O)CCC2=O)c1",
    "assigned-label": "high class"
  },
  {
    "molecule": "COc1ccc(-c2c(C(=O)O)c(C(=O)O)c3n2CCC3)cc1",
    "assigned-label": "high class"
  },
  {
    "molecule": "CC(=O)Nc1ccc(N=c2cc([N+](=O)[O-])cc(Cl)n2O)cc1",
    "assigned-label": "middle class"
  },
  {
    "molecule": "NC(=S)Nc1ccccc1Br",
    "assigned-label": "high class"
  },
  {
    "molecule": "COc1ccc2ccccc2c1CNCCc1ccccc1.Cl",
    "assigned-label": "high class"
  },
  {
    "molecule": "Cn1cccc1C(=O)OCC(=O)Nc1ccc2c(c1)OCO2",
    "assigned-label": "middle class"
  },
  {
    "molecule": "CCN1C(=O)CSC1=Nc1ccc(Cl)c(Cl)c1",
    "assigned-label": "middle class"
  },
  {
    "molecule": "COc1ccc(CCNC(=O)C2CC=CCC2C(=O)O)cc1 (stereo not given)",
    "assigned-label": "high class"
  },
  {
    "molecule": "CC1=C(C(=O)OC(C)(C)C)C(c2cccc3ccccc23)NC(=O)N1 (stereo not given)",
    "assigned-label": "low class"
  },
  {
    "molecule": "O=S1(=O)C=C(SCc2ccc(F)cc2)Nc2ccccc21",
    "assigned-label": "middle class"
  },
  {
    "molecule": "O=C(Nc1ccc(Cl)cc1N1CCOCC1)C1CC1",
    "assigned-label": "high class"
  },
  {
    "molecule": "Cc1ccc(C)c(C(=O)c2ccccc2NC(=O)c2ccccn2)c1",
    "assigned-label": "low class"
  },
  {
    "molecule": "Cn1c(SCC(=O)NC2CCCCC2)nnc1-c1ccccn1",
    "assigned-label": "high class"
  },
  {
    "molecule": "CCOC(=O)CNc1cccc(C(F)(F)F)c1",
    "assigned-label": "middle class"
  },
  {
    "molecule": "CCc1ccccc1NC(=O)c1sc2nc(C)cc(C)c2c1N",
    "assigned-label": "low class"
  },
  {
    "molecule": "Cc1cc(C)cc(NC(=O)C(=S)NCc2ccccc2)c1",
    "assigned-label": "low class"
  },
  {
    "molecule": "N#Cc1c(N2CCSCC2)nsc1-c1ccccc1Cl",
    "assigned-label": "low class"
  },
  {
    "molecule": "COc1ccc(-c2cc(C#N)nc(Cl)n2)cc1",
    "assigned-label": "low class"
  },
  {
    "molecule": "CCCCc1c(C)[nH]c2nc3ccccc3n2c1=O",
    "assigned-label": "low class"
  },
  {
    "molecule": "Cl.O=C(COc1ccc(F)cc1)NCCN1CCCC1",
    "assigned-label": "high class"
  },
  {
    "molecule": "CC(C)OC(=O)CSc1nc(C(C)C)nc2ccccc12",
    "assigned-label": "low class"
  },
  {
    "molecule": "O=C(Nc1cc(Cl)ccc1N1CCOCC1)c1ccco1",
    "assigned-label": "low class"
  },
  {
    "molecule": "OC(CNCc1cccs1)c1ccccc1 (stereo not given)",
    "assigned-label": "high class"
  },
  {
    "molecule": "COc1cc(C(=O)N2C[C@H]3C[C@@H](C2)c2cccc(=O)n2C3)cc(OC)c1OC",
    "assigned-label": "high class"
  },
  {
    "molecule": "CCOc1ccccc1N1CN(Cc2ccccc2)CNC1=S",
    "assigned-label": "high class"
  },
  {
    "molecule": "CCCN(CCC)CC(C)(C)NS(=O)(=O)c1ccc(Cl)cc1",
    "assigned-label": "high class"
  },
  {
    "molecule": "COc1ccc2c(c1)c(CC[NH3+])c(C)n2Cc1ccccc1.[Cl-]",
    "assigned-label": "high class"
  },
  {
    "molecule": "Cc1cccc(C(=O)OCC(=O)NCc2ccc3c(c2)OCO3)c1C",
    "assigned-label": "middle class"
  },
  {
    "molecule": "CCCCNC(=O)c1ccc2c(c1)N(C)C(=O)c1ccccc1S2",
    "assigned-label": "middle class"
  },
  {
    "molecule": "O=C(OCc1ccccc1)N1CCc2ccccc21",
    "assigned-label": "low class"
  },
  {
    "molecule": "Cc1[nH]nc(SCC(=O)N2CCOCC2)c1[N+](=O)[O-]",
    "assigned-label": "high class"
  }
]

---

- cond: buffer; pH 7.4; 200.0 µM
Measured solubility kinetic, listed per entry for reference.

[
  {
    "structure-notation": "CCN1CCN(C(=O)/C=C/c2ccc(C)cc2)CC1",
    "solubility kinetic": "> 38.8 µg/mL"
  },
  {
    "structure-notation": "COc1cccc(NC(=O)COC(=O)c2c(C)noc2C)c1",
    "solubility kinetic": "> 45.6 µg/mL"
  },
  {
    "structure-notation": "Cc1nnc(N(C)C(=O)c2ccc3c(c2)OCO3)s1",
    "solubility kinetic": "> 41.6 µg/mL"
  },
  {
    "structure-notation": "CC(=O)Nc1ccc(-c2cn3c(n2)SCC3)cc1",
    "solubility kinetic": "34.4 µg/mL"
  },
  {
    "structure-notation": "CC(C)(C)C(=O)Nc1nnc(SCC(=O)NC2CC2)s1",
    "solubility kinetic": "> 47.2 µg/mL"
  },
  {
    "structure-notation": "COc1cccc(CN(C)C(=O)c2sccc2-c2ccccc2)c1OC",
    "solubility kinetic": "34.6 µg/mL"
  }
]

---

# solubility kinetic listing for each entry below
- cond: buffer; pH 7.4; 200.0 µM

[
  {
    "molecule": "C/C(=N/OC(=O)c1ccc(C(F)(F)F)cc1)c1oc(C)nc1C",
    "uom": "µg/mL",
    "inequality-sign": "=",
    "solubility kinetic": 8.1
  },
  {
    "molecule": "COCCNC(=S)N1CCC(Cc2ccccc2)CC1",
    "uom": "µg/mL",
    "inequality-sign": ">",
    "solubility kinetic": 43.9
  },
  {
    "molecule": "COc1ccc(CCNC(=O)c2ccco2)cc1OC",
    "uom": "µg/mL",
    "inequality-sign": "=",
    "solubility kinetic": 40.8
  },
  {
    "molecule": "COc1ccc(CCn2c(C)c(C(C)=O)c(C(C)=O)c2C)cc1OC",
    "uom": "µg/mL",
    "inequality-sign": ">",
    "solubility kinetic": 51.5
  },
  {
    "molecule": "Cc1cccc(OC(C)C(=O)Nc2nccs2)c1 (centres undefined)",
    "uom": "µg/mL",
    "inequality-sign": "=",
    "solubility kinetic": 37.9
  },
  {
    "molecule": "Cc1noc(C(=O)NC2CCCCC2)c1Cl",
    "uom": "µg/mL",
    "inequality-sign": "=",
    "solubility kinetic": 35.6
  },
  {
    "molecule": "COC(=O)C1CSC(c2ccc(Cl)cc2)N1C(=O)c1ccccc1 (centres undefined)",
    "uom": "µg/mL",
    "inequality-sign": "=",
    "solubility kinetic": 34.1
  },
  {
    "molecule": "Cc1ccc(OCC(=O)NCCCNC(=O)COc2ccc(C)cc2)cc1",
    "uom": "µg/mL",
    "inequality-sign": "=",
    "solubility kinetic": 15.1
  },
  {
    "molecule": "C=CCN1C(=O)c2ccc(C(=O)Nc3ccccn3)cc2C1=O",
    "uom": "µg/mL",
    "inequality-sign": "=",
    "solubility kinetic": 8
  },
  {
    "molecule": "Cc1cc(C)c(Nc2ncccc2C(=O)O)c(C)c1",
    "uom": "µg/mL",
    "inequality-sign": ">",
    "solubility kinetic": 38.4
  },
  {
    "molecule": "COc1ccc(-c2cc(C(=O)NCc3ccco3)c3ccccc3n2)c(OC)c1",
    "uom": "µg/mL",
    "inequality-sign": "=",
    "solubility kinetic": 8.3
  },
  {
    "molecule": "COc1ccccc1Nc1c2c(nc3ccc(N)cc13)CCCC2",
    "uom": "µg/mL",
    "inequality-sign": "=",
    "solubility kinetic": 47.2
  },
  {
    "molecule": "O=C(NC1(Cc2ccc(O)cc2)CCCCC1)c1ccccc1",
    "uom": "µg/mL",
    "inequality-sign": "=",
    "solubility kinetic": 44.9
  },
  {
    "molecule": "CC(c1ccccc1)N1CCN(C(=O)CCl)CC1.Cl (centres undefined)",
    "uom": "µg/mL",
    "inequality-sign": "=",
    "solubility kinetic": 43.3
  },
  {
    "molecule": "CCCCc1ncc(CN2CCN(Cc3ccc(C)cc3)C(CCO)C2)[nH]1 (centres undefined)",
    "uom": "µg/mL",
    "inequality-sign": "=",
    "solubility kinetic": 49.1
  },
  {
    "molecule": "CCOC(=O)C1CCN(S(=O)(=O)c2c(C)noc2C)CC1",
    "uom": "µg/mL",
    "inequality-sign": "=",
    "solubility kinetic": 26.8
  },
  {
    "molecule": "Cc1nn(CC(=O)OCC(=O)NCCc2ccc(F)cc2)c(C)c1[N+](=O)[O-]",
    "uom": "µg/mL",
    "inequality-sign": ">",
    "solubility kinetic": 56.8
  },
  {
    "molecule": "Cc1ccc(OCc2ccc([N+](=O)[O-])cc2)c([N+](=O)[O-])n1",
    "uom": "µg/mL",
    "inequality-sign": "=",
    "solubility kinetic": 1.1
  },
  {
    "molecule": "O=C(c1ccccc1Cl)N1CCC(n2cccc2)CC1",
    "uom": "µg/mL",
    "inequality-sign": "=",
    "solubility kinetic": 42.2
  },
  {
    "molecule": "N#Cc1cccc(C(=O)Nc2ccc(S(=O)(=O)Nc3nccs3)cc2)c1",
    "uom": "µg/mL",
    "inequality-sign": ">",
    "solubility kinetic": 57.7
  },
  {
    "molecule": "O=C(Cc1c(Cl)cccc1Cl)NC1=NCCS1",
    "uom": "µg/mL",
    "inequality-sign": "=",
    "solubility kinetic": 19.2
  },
  {
    "molecule": "CN(CCc1ccccn1)c1ccc([N+](=O)[O-])cn1",
    "uom": "µg/mL",
    "inequality-sign": "=",
    "solubility kinetic": 38.1
  },
  {
    "molecule": "COc1cc2c(cc1OC)C(C)N(C(=O)c1c(C)noc1C)CC2 (centres undefined)",
    "uom": "µg/mL",
    "inequality-sign": "=",
    "solubility kinetic": 2.7
  },
  {
    "molecule": "O=C(/C=C/c1cccs1)N1CCN(c2ccc(F)cc2)CC1",
    "uom": "µg/mL",
    "inequality-sign": "=",
    "solubility kinetic": 3.1
  }
]
